This section presents compounds with their documented solubility kinetic values.
# recordedConditions: buffer; pH 7.4; 200.0 µM
experimentalEndpoint: solubility kinetic

# sampleSmiles, reportedResult
measured = [
    ("Cn1c(C(=O)N[C@@H](Cc2ccccc2)C(=O)O)cc2cc(Cl)ccc21", "> 53.5 µg/mL"),
    ("CC(=O)c1cc(CCC(=O)NC2CCCCCC2)oc1C", "> 43.7 µg/mL"),
    ("O=c1c2[nH]cnc2n(-c2ccc(F)cc2)c(=O)n1Cc1ccccc1", "> 50.4 µg/mL"),
    ("Cc1[nH]c2ccc(C(=O)NCCCN3CCCCC3)cc2c1C", "> 47 µg/mL"),
    ("Cl.Clc1cccc(Cl)c1CSc1nnc([C@@H]2CCCN2)o1", "> 55 µg/mL"),
    ("CCOC(=O)NC(=O)COC(=O)c1cccc2ccccc12", "> 45.2 µg/mL"),
]

* * *

# recordedConditions: buffer; pH 7.4; 200.0 µM
experimentalEndpoint: solubility kinetic

# sampleSmiles, reportedResult
rows = [
    ("CCN1CCc2c(OCC(=O)N3CCCc4ccccc43)cccc2C1=O", "> 54.7 µg/mL"),
    ("Cc1cc2[nH]c(=O)c(=O)[nH]c2cc1S(=O)(=O)NCc1ccccc1", "> 51.8 µg/mL"),
    ("Cc1ccc(S(=O)(=O)N(C)CC(=O)N2CCC(C(N)=O)CC2)cc1", "> 53 µg/mL"),
    ("O=C(COC(=O)/C=C/c1cccc(F)c1)NC1CC1", "> 39.5 µg/mL"),
    ("Cc1cc(C)c2c(CC(=O)N3CCCC3)coc2c1", "> 38.6 µg/mL"),
]

* * *

# recordedConditions: buffer; pH 7.4; 200.0 µM
This section presents compounds with their documented log10 solubility kinetic values.
experimentalEndpoint: log10 solubility kinetic (log10 of the value in µg/mL)

# sampleSmiles, log10 solubility kinetic
data = [
    ("CCNc1nc(NCC)nc(N(CC)C(N)=S)n1", 1.00),
    ("O=C(CNC(=O)c1cccs1)OCc1c(F)cccc1Cl", 1.63),
    ("N/C(CCS(=O)(=O)c1ccc(Cl)cc1)=N\\OC(=O)c1ccc(Cl)cc1", 0.08),
    ("O=S(=O)(Cc1cc(-c2ccccc2Cl)no1)c1ccccc1", 0.26),
    ("CC(C)(C)NC(=O)C1CCN(C(=O)c2ccco2)CC1", 1.61),
    ("O=[N+]([O-])c1ccc(N2CCN(c3ccccn3)CC2)c(Cl)c1", -0.10),
    ("Cc1nc2cc(NCc3cccs3)ccc2n1C", 1.50),
    ("C=CCSc1ncnc2c1oc1nc3c(cc12)COC(C)(C)C3", 0.11),
    ("O=C1[C@@H]2CSCN2C(=O)CN1Cc1cccc(C(F)(F)F)c1", 1.64),
]

* * *

# recordedConditions: buffer; pH 7.4; 200.0 µM

# compound, relation, solubility kinetic [mg/mL]
records = [
    ("CC(C)NC(=O)c1ccccc1NC(=O)Cc1ccc([N+](=O)[O-])cc1", "=", 0.0191),
    ("CS(=O)(=O)c1ccccc1C(=O)Nc1cccc2ncccc12", "=", 0.0359),
    ("C=CC#CC1(O)CC(C)N(C)CC1C (centres undefined)", ">", 0.029),
    ("O=C(O)CC(CC(=O)Nc1ccccc1C(=O)O)c1ccccc1 (centres undefined)", ">", 0.0491),
    ("O=C(NCCNC(=O)c1ccc(Cl)cc1Cl)c1cnccn1", "=", 0.037),
    ("COc1cccc(OC)c1C(=O)Nc1ccc2nc(C)c(C)nc2c1", "=", 0.0045),
    ("O=[N+]([O-])c1cccc(NC(=S)N2CCc3ccccc32)c1", "=", 0.0076),
    ("COC(=O)C(NC(C)=O)(Nc1cc(C)ccn1)C(F)(F)F (centres undefined)", "=", 0.0407),
    ("N#Cc1ccccc1OCC(=O)OCC(=O)NC1CCS(=O)(=O)C1 (centres undefined)", ">", 0.0529),
]

Source: PubChem BioAssay AID1996
